These data points were gathered from the supplement of paper PMC10567573.

B1: ZNF263 (parent)
chain: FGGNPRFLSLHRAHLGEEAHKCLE

- Variants of: B1
- ASSAY_METHOD_TEXT: protein stability index of a GFP-peptide fusion (GPS, HEK-293T) (PSI 1-6); higher = more stable;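 note: lentivirally expressed fusions sorted by FACS into six bins by GFP to DsRed ratio, PSI derived from sequencing read proportions per bin multiplied by bin number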
- MEASUREMENT_CONDITIONS: c terminus: a fixed tail appended
A collection of variants and their measured protein stability index
QUANTITY_MEASURED: protein stability index

    variant_annotation        quantity_measured  observed_value
 0                L15T  protein stability index            1.55
 1                H14Y  protein stability index            1.86
 2                E17A  protein stability index            1.42
 3                K21N  protein stability index               2
 4                 F1L  protein stability index            3.18
 5                 F7M  protein stability index            2.42
 6                 G2L  protein stability index            2.25
 7                L10M  protein stability index            2.02
 8                E18I  protein stability index            2.34
 9                A13H  protein stability index            2.26
10                H14N  protein stability index            1.49
11                 F7P  protein stability index            2.71
12                E18L  protein stability index            2.33
13                L10R  protein stability index            2.69
14                G16D  protein stability index            1.63
15                 R6H  protein stability index            2.37
16                 F7V  protein stability index            2.64
17                A13L  protein stability index            1.43
18                 G3W  protein stability index            2.14
19                A13C  protein stability index            1.71
20                 R6N  protein stability index            1.89
21                E18P  protein stability index            2.05
22                H20L  protein stability index            1.61
23                K21T  protein stability index            2.04
24                 F7L  protein stability index            2.56
25                K21V  protein stability index            1.38
26                 G3C  protein stability index               2
27                G16A  protein stability index             2.1
28                H20Q  protein stability index            1.04
29                R12K  protein stability index            1.61
30                 N4E  protein stability index            2.26
31                E24Q  protein stability index            2.37
32                G16I  protein stability index            2.06
33                E24K  protein stability index            1.76
34                L23A  protein stability index            2.65
35                R12V  protein stability index            3.14
36                E24T  protein stability index            1.56
37                L10V  protein stability index            2.66
38                 G2M  protein stability index            2.35
39                 G2T  protein stability index            3.64
40                R12Y  protein stability index            1.24
41                 F1I  protein stability index            3.51
42                 F1E  protein stability index            3.61
43                A19N  protein stability index            1.66
44                 P5A  protein stability index            2.03
45                A19I  protein stability index            2.36
46                E17Y  protein stability index            1.56
47                 G3E  protein stability index            2.16
48                L10S  protein stability index            1.62
49                K21P  protein stability index            2.13
50                C22W  protein stability index            1.46
51                H20K  protein stability index            2.56
52                G16W  protein stability index            1.87
53                A19Q  protein stability index             1.9
54                 G2H  protein stability index            1.79
55                C22K  protein stability index               2
56                R12C  protein stability index            1.87
57                 S9F  protein stability index            2.14
58                 F1R  protein stability index            3.69
59                E24M  protein stability index            2.31
60                E18H  protein stability index            1.47
61                A19G  protein stability index            1.58
62                A13E  protein stability index            1.66
63                C22I  protein stability index            1.59
64                 S9H  protein stability index             1.8
65                H11V  protein stability index            2.55
66                K21F  protein stability index            2.17
